Cited source for all entries: the supplement of paper PMC12137928

tested on: HCT116; conditions: 72 h; ICRF193 0 nM
observed property: IC50 cell viability

CC(C)[N+](C)(CCOC(=O)C1c2ccccc2Oc2ccccc21)C(C)C [Propantheline bromide] = > 45.8 µM

Please report the measured IC50 cell viability for CC(=O)OCC(=O)[C@@]1(O)[C@H](OC(C)=O)C[C@H]2[C@@H]3CCC4=CC(=O)C=C[C@]4(C)[C@@]3(F)[C@@H](O)C[C@@]21C [Triamcinolone diacetate] > 45.8 µM

Please report the measured IC50 cell viability for C=C1/C(=C\C=C2/CCC[C@]3(C)[C@@H]([C@H](C)CC[C@@H](O)C(C)C)CC[C@@H]23)C[C@@H](O)C[C@@H]1O 23.1 µM

Please report the measured IC50 cell viability for CC(C)Nc1cccnc1N1CCN(C(=O)c2cc3cc(NS(C)(=O)=O)ccc3[nH]2)CC1 > 45.8 µM

Please report the measured IC50 cell viability for N#CC[C@H](C1CCCC1)n1cc(-c2ncnc3[nH]ccc23)cn1 29.1 µM

Please report the measured IC50 cell viability for O=C(NCC1CCCCN1)c1cc(OCC(F)(F)F)ccc1OCC(F)(F)F (stereo unspecified) [Flecainide] > 45.8 µM

Please report the measured IC50 cell viability for CCn1ccc(NS(=O)(=O)c2ccc(N)cc2)nc1=O > 45.8 µM

Please report the measured IC50 cell viability for CC(C)C(=O)Nc1cccc(C2CN3CCSC3=N2)c1 (stereo unspecified) > 45.8 µM

Please report the measured IC50 cell viability for CCN(CC)CCOc1ccccc1C(=O)CCc1ccccc1 > 45.8 µM

Please report the measured IC50 cell viability for C=CCc1ccc(O)c(OC)c1 > 45.8 µM
